target: hERG potassium channel (Homo sapiens)
Sequence (Q12809 whole entry): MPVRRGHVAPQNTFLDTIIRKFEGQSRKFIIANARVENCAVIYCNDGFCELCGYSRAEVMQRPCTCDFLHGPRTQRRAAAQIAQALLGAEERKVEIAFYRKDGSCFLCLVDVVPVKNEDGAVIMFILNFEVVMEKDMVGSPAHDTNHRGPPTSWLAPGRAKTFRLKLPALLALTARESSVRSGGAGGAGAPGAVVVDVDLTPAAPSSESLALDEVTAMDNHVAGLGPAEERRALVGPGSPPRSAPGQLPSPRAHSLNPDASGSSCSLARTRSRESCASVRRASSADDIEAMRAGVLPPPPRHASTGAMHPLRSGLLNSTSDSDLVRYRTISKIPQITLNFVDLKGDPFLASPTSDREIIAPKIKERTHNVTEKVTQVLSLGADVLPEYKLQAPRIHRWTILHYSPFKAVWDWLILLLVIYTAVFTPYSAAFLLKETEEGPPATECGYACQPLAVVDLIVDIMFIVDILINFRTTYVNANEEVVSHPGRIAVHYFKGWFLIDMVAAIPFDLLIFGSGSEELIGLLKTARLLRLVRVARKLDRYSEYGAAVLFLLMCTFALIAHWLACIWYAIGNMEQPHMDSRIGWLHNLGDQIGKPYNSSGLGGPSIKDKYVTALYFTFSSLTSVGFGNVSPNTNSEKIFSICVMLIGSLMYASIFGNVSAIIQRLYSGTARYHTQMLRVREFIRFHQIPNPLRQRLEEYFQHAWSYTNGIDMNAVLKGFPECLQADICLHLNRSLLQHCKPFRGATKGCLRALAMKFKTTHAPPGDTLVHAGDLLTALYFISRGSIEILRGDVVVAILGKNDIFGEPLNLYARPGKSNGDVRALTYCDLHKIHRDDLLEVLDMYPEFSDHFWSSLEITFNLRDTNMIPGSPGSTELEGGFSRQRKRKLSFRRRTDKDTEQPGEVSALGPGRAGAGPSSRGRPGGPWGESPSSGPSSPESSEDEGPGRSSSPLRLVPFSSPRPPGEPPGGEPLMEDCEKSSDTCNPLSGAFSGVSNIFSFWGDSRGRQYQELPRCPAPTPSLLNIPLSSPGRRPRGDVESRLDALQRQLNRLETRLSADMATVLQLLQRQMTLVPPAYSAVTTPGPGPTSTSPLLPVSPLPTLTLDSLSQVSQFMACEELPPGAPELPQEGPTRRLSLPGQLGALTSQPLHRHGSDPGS
protocol_text: Inhibitory effect on hERG potassium channel with the patch clamp method
pIC50: −log10 of the molar value.
Form field: pIC50 (one value per entry).

- compound: "COC(=O)c1ccc2c(c1)NC(=O)/C2=C(\\Nc1ccc2c(c1)CCN2C(=O)CN1CCOCC1)c1ccc(F)cc1 [Compound 9]"
  pIC50: "< 4.52"
- compound: "COC(=O)c1ccc2c(c1)NC(=O)/C2=C(\\Nc1ccc(N(C)C(=O)CN2CCN(C)CC2)cc1)c1ccccc1 [Intedanib (BIBF-1120), Intedanib, reference compound]"
  pIC50: 5.31

Please turn your attention to the following entry.
Ask: Quote pIC50 with test system hERG potassium channel (Homo sapiens) for CCOC(=O)c1ccc2c(c1)NC(=O)/C2=C(\Nc1ccc2c(c1)CCN2C(=O)CN1CCOCC1)c1ccccc1 [Compound 10]
Reply: < 4.52

====

Counter-ions that a name gives are not always drawn.
The following compounds have recorded pIC50 on VEGFR2 (Homo sapiens, UniProt P35968).
Sequence (P35968 20-1356): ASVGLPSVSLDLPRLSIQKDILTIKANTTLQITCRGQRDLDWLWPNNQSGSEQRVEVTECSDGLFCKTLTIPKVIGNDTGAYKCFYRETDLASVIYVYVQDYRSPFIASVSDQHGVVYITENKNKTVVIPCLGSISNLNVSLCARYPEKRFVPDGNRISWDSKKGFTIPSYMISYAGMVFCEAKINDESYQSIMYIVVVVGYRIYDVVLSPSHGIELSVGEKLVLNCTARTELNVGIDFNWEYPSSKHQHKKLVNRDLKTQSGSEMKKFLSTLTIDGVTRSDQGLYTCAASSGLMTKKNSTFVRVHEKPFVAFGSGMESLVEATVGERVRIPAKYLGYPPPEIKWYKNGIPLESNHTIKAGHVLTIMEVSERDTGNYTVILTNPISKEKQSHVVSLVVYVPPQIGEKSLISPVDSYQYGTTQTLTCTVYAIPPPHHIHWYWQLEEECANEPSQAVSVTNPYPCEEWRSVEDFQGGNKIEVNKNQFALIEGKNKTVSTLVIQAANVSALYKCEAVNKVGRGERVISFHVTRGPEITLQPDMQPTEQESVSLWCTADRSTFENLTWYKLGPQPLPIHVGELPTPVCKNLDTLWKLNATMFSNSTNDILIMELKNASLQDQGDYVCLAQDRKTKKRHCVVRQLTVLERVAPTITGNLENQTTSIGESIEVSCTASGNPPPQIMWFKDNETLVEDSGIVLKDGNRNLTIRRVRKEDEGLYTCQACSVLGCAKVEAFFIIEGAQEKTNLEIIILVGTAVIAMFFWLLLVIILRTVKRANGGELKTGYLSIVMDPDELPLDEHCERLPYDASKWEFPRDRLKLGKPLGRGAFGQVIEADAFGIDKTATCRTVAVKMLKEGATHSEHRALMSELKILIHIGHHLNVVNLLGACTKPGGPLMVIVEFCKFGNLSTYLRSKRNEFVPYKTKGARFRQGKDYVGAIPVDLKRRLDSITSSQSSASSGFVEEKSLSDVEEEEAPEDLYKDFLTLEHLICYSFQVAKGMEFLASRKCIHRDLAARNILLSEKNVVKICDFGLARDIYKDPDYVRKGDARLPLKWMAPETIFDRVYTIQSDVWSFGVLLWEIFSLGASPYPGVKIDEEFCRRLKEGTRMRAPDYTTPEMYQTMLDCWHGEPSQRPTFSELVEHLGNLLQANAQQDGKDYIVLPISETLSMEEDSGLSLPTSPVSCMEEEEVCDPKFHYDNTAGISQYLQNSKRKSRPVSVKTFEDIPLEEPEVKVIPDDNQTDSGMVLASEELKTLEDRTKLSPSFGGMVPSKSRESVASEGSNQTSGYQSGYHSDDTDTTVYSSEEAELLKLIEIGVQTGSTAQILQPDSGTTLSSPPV
Scale: negative log10 of molar concentration, which is what pIC50 denotes.

- compound: "COC(=O)c1ccc2c(c1)NC(=O)/C2=C(\\Nc1ccc2c(c1)CCN2C(=O)CN1CCN(C)CC1)c1ccccc1 [Compound 1]"
  pIC50: 7.77
- compound: "COC(=O)c1ccc2c(c1)NC(=O)/C2=C(\\Nc1ccc2c(c1)CCN2C(=O)CN1CCOCC1)c1ccc(F)cc1 [Compound 9 hydrochloride]"
  pIC50: 6.11

Please turn your attention to the following entry.
Ask: Please look at this compound and report its pIC50: CCOC(=O)c1ccc2c(c1)NC(=O)/C2=C(\Nc1ccc2c(c1)CCN2C(=O)CN1CCOCC1)c1ccccc1 [Compound 10 hydrochloride]
Reply: 6.20
